Kindly supply the reported abundance fitness values for the records listed here.
B1: Probable E3 ubiquitin-protein ligase MID2, residues 191 to 235; numbered along this chain, Q9UJV3 (parent)
chain: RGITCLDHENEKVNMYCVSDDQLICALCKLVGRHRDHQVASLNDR

- Variants of: B1
- TEST_PROTOCOL: abundance fitness (aPCA) (normalised: wild type 0, dead -1); higher = more abundant; growth selection in yeast, the domain comes from the species named
- RUN_PARAMETERS: Homo sapiens

Solved entries (count: 8):
T4G | -0.217
I3Y | 0.072
D7I | -0.015
R35D | -0.242
I3R | -0.079
D44M | -0.187
V18L | -0.024
V39C | -0.014

I'm hoping you can list abundance fitness for every variant here, please.
1. V39E
2. D44F
3. K12S
4. R35C
5. H37S
6. Q22E
7. L6N

Return:
[-0.143, -0.422, 0.095, -0.126, -0.482, -0.113, -0.22]
